Data credit: the Human Domainome abundance scans (Beltran et al. 2025)

B1: Chromodomain-helicase-DNA-binding protein 7, residues 2564 to 2605; numbered along this chain, Q9P2D1 (parent)
chain: DPDTRIPVINLEDGTRLVGEDAPKNKDLVEWLKLHPTYTVDM

Variants of: B1
PROTOCOL TEXT: abundance fitness (aPCA) (normalised: wild type 0, dead -1); higher = more abundant; growth selection in yeast, the domain comes from the species named
STATED CONDITIONS: Homo sapiens
REPORTED METRIC: abundance fitness

- R16S: 0.132
- H35K: -0.546
- T4I: -0.115
- A22R: -0.477
- D1F: 0.073
- K33W: -0.319
- T15D: 0.018
- T39C: -0.212
- I9G: -0.159
- T15L: -0.055
- T39S: -0.038
- Y38T: -0.331
- L34P: -0.328
- D3E: 0.106
- E30F: -0.591
- N25G: -0.157
- M42S: 0.111
- L28S: -0.39
- L32V: -0.586
- I9V: 0.04
- Y38D: -0.278
- V40P: -0.166
- V18P: -0.372
- T37E: -0.202
- I9D: -0.345
- P7A: 0.067
- H35C: -0.866
- V18K: -0.154
- K26H: 0.203
- R16G: -0.4
- Y38L: -0.632
- L11R: -0.104
- T37Q: -0.273
- K33L: -0.17
- P2F: -0.513
- K24C: -0.094
- P2A: -0.031
- R5F: -0.451
- V8Q: -0.384
- K33D: -0.01
- L28E: -0.41
- M42V: -0.065
- M42R: -0.092
- N25Y: -0.253
- E30R: -0.277
- D27K: -0.517
